Assay: yeast display, Sf9 membrane polyspecificity reagent, FACS + sequencing; frameworks hold sequencing errors
metric.name: polyreactivity (PSR sort gate)

Sample records with polyreactivity (PSR sort gate):
query.sequence: QVQLVESGGGLVQAGGSLRLSCAASGFTFGINAMGWYRQAPGQERELVASISSGSSTTYADSVKGRFTISRDNAKNTVYLQMNSLKPEDTAVYYCNARPFHIYWRYDYWGQGTQLTVSS
polyreactivity (PSR sort gate): low polyreactivity

query.sequence: QVQLVESGGGLVQAGGSLRLSCAASGSIFRINAMGWYRPARGKERELVAATTKYADSVKGRFTISRDNAKNTVYLQMHSLKPEDTAVYYCAAAPIGGSSHPYDYWGQGTQVTVTS
polyreactivity (PSR sort gate): low polyreactivity

query.sequence: QVQLVESGGCLVQAGGSLRISCAASGRIFSRNAMGWYRQAPGKEREWVAAITRSSGTTYYADSVKGRFTISRDNAKNTVYLQMNSLKPEDTAVYYCAAGHTYGGYPRPSDYWGQGTQVTVSS
polyreactivity (PSR sort gate): low polyreactivity

query.sequence: QVQLVESGGGLVQAGGSLRLSCAASGFTFAYYAMGWYRQAPGKERELVAAISSGGGTYYADSVKGRFTISRDNAKNTVYLQMNSLKPEDTAVYYCNAANGRYIGSRYVVYTGFYYWGQGTQVTVSS
polyreactivity (PSR sort gate): high polyreactivity

Briefly, polyreactivity (PSR sort gate) measured for QVQLVESGGGLVQAGGSLRLSFAASGRTFDRNAMGWYRQAPGKERELVARITIDGSTNYADSVKGRFTISRDNAKNTVYLQMNSLKPEDTAVYYCATDQLSLSWYFRPYDYGYWGQGTQVTVSS : high polyreactivity

====

Assay: yeast display, Sf9 membrane polyspecificity reagent, FACS + sequencing; frameworks hold sequencing errors
metric.name: polyreactivity (PSR sort gate)

query.sequence: QVQLVESGGGLVQAGGSLRLSCAASGFTFRQYSMGWYRQARGKERELVAGISSSGGSTRYADSVKGRFTISRDNAKNTVYFQMNSLKPEDTAVYYCAARIASHHYYYWGQVTQVTVSS
result: high polyreactivity
--
query.sequence: QVQLVESGGGLVQGGGSLRLSCAASGRTFYGYAMGWYRQAPGKERELVAAITRSGGSTYYADSVKGRFTISRDNAKKTVYLQMNILKPVDTAVYYCAAGGQARHDYWGQGTQVTVSS
result: low polyreactivity
--
query.sequence: QVQLVESGGGLVQAGGSLRLSCAASGFTFKYYTMGWYRQAPGKERELVAAISSAASTNYADSVKGRFTISRDNAKNTVYLQMNSLKPEDTAVYYCNADITGWARIRYQWIRQYDYWGQGTQVTVSS
result: high polyreactivity
--
query.sequence: QVQLVESGGALVQAGGSLRLSCAASGFTFRTYAMGWYRQAPRKERELVADISGSGGSTYYADSVKGRFTISRDNPKNTVYLQMNSLKPEDTAVSYCAADYASWSNWGYEYWGQGTQVTVSS
result: high polyreactivity

Read the next record carefully.
The value of polyreactivity (PSR sort gate) measured for the sequence QVQLVESGGGLVQAGGSLRLSCAASGYIFALNAMGWYRPAPGKEWELVAAINDSGDSTYYADSVKGRFTISRDNAKNTVYLQMNSLKPEDTAVYYCAAGFSYEWCYPTFDYWGQGTQVTVSS turned out to be low polyreactivity

====

Experiment: yeast display, Sf9 membrane polyspecificity reagent, FACS + sequencing; frameworks hold sequencing errors

query.sequence: QVQLVESGAGLVQAGGSLRVSCAASGSIFGKNAMGWYRQAPGKERELVAAITSSGGSTYYADSVKGRFTISRDNAKNTVYLQMNSLKPEDTAVYYCAARPWIWARAGYYWGQGTQVTVSS
polyreactivity (PSR sort gate): high polyreactivity

query.sequence: QVQLVESGGGLVQAGGSHRLSCAASGRIFSDYAMGWYRQAPGKERELVAAITRDGSTNYADSVKGLFTISRDNAKNTVYLQLNSLKPEDTAVYYCAAEGRRGGKDYDYWGQGTQVTVSS
polyreactivity (PSR sort gate): high polyreactivity
